- system under test: Cholesteryl ester transfer protein (Homo sapiens)
- Sequence (P11597 whole entry): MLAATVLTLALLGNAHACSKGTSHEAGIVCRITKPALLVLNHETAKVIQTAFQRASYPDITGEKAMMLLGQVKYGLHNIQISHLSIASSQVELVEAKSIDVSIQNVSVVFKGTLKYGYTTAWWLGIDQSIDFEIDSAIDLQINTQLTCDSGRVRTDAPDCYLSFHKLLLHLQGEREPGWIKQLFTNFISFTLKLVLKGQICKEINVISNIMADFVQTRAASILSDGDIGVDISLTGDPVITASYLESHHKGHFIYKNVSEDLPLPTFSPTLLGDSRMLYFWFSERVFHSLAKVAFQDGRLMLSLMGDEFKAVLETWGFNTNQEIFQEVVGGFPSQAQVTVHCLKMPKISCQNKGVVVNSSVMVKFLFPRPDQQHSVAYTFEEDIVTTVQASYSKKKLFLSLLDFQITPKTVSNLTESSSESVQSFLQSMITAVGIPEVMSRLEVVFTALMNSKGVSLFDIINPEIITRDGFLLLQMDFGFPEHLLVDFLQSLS
- method: Inhibition of human plasma derived CETP
endpoint name: IC50

# IC50 of OC(CN1c2cccc(-c3cccc(F)c3)c2CCC1c1cccc(OC(F)(F)C(F)F)c1)C(F)(F)F (single isomer, unassigned; diastereomer 1) = 117 nM

Lab note: measured IC50 of "C[C@@H](O)CN1c2cccc(-c3cccc(OC(F)(F)F)c3)c2CC[C@@H]1c1cccc(OC(F)(F)F)c1" was 125 nM

Sure, the documented IC50 for COc1cccc(-c2cccc3c2CCC(c2cccc(OC(F)(F)C(F)F)c2)N3CC(O)C(F)(F)F)c1 (single isomer, unassigned; diastereomer 1) is 126 nM

Per the records, this compound ( OC(CN1c2cccc(-c3cccc(OC(F)(F)F)c3)c2CCC1c1cccc(OC(F)(F)C(F)F)c1)C(F)(F)F (single isomer, unassigned; 20) ) has IC50 equal to 300 nM

Memo: CC(C)Oc1cccc(-c2cccc3c2CCC(c2cccc(OC(F)(F)C(F)F)c2)N3CC(O)C(F)(F)F)c1 (centres undefined) , reported IC50: 345 nM

Documented IC50 of OC(CN1c2cccc(-c3ccc(OC(F)(F)F)cc3)c2CCC1c1cccc(OC(F)(F)C(F)F)c1)C(F)(F)F (single isomer, unassigned; diastereomer 1) : 500 nM

// IC50 value for OC(CN1c2cccc(-c3cccc(Cl)c3)c2CCC1c1cccc(OC(F)(F)C(F)F)c1)C(F)(F)F (single isomer, unassigned; diastereomer 1) : 64 nM

Query OC(CN1c2cccc(-c3cccs3)c2CCC1c1cccc(OC(F)(F)C(F)F)c1)C(F)(F)F (single isomer, unassigned; diastereomer 1) yields IC50 of 317 nM

So, O[C@@H](CN1c2cccc(-c3cccc(OC(F)(F)F)c3)c2CC[C@@H]1c1cccc(OC(F)(F)F)c1)C(F)(F)F [TETRAHYDROQUINOLINE A] ? Its IC50 was 39 nM

# IC50 of N#Cc1cccc(-c2cccc3c2CCC(c2cccc(OC(F)(F)C(F)F)c2)N3CC(O)C(F)(F)F)c1 (single isomer, unassigned; diastereomer 1) = 235 nM

So, OC(CN1c2cccc(-c3cccc(OC(F)(F)F)c3)c2CCC1c1cccc(OC(F)(F)F)c1)C(F)(F)F (stereo in doubt; 52) ? Its IC50 was 125 nM

IC50 for OC(CN1c2cccc(-c3cccc(Cl)c3Cl)c2CCC1c1cccc(OC(F)(F)C(F)F)c1)C(F)(F)F (single isomer, unassigned; diastereomer 2) is 400 nM

The compound listed as OC(CN1c2cccc(-c3cccnc3)c2CCC1c1cccc(OC(F)(F)C(F)F)c1)C(F)(F)F (single isomer, unassigned; diastereomer 1) has a reported IC50 of > 3000 nM

Entry OC(CN1c2cccc(-c3cccc(OC(F)(F)F)c3)c2CCC1c1cccc(OC(F)(F)C(F)F)c1)C(F)(F)F (single isomer, unassigned; 19) — recorded IC50 = 33 nM
